# assay target: Mannose-6-phosphate isomerase (Homo sapiens)
# assay remarks: MPI inhibition at elevated mannose 6-phosphate – biochemical, fluorescence intensity, high mannose 6-phosphate, primary screen (AID 1220)
# assay context: recombinant PMI enzyme, coupled fluorescence intensity; at 20 µM
Screen size: about 190,000 compounds; about 1,300 (0.68%) were called active. No stated cut-off is given here; in the data, active means inhibition above about 50%; inactive means the rest. What follows is part of a selection rich in actives, with near analogues and random picks from the rest.
Allowed answers: active, inactive

Cc1cc(C)c2c(N)c3cccc(C)c3nc2n1 = inactive
Oc1ccc(NCc2cccc(OCc3ccccc3)c2)cc1 = active
Fc1ccc(COc2cccc(CNCc3ccncc3)c2)cc1 = inactive
COc1ccc(S(=O)(=O)N2CCN(CC(=O)Nc3ccc(F)c(F)c3)CC2)cc1 = inactive
Oc1ccc(NCc2cccc(OCc3ccc(F)cc3)c2)cc1 = active
Cc1ccc2cccc(OCCOCCOc3ccccc3Br)c2n1 = inactive
C/C(=N\NC(=O)CN(c1ccccc1)S(=O)(=O)c1ccccc1[N+](=O)[O-])C(C)(C)C = inactive
CN(c1ncc(C(F)(F)F)cc1Cl)N1C(=O)c2cccc([N+](=O)[O-])c2C1=O = inactive
Cc1cc(N)c2ccccc2n1 = inactive
Cc1ccccc1Nc1ncnc(N)n1 = inactive

Challenge: Dear all, I need the recorded test outcome for `Cc1ccc2cccc(N)c2n1` , thank you.
Response given: active

Challenge: Write down the call the test reported for this compound. Item: `Cc1cc(C)c2cccc(N)c2n1`
Response given: active

Each recorded value in this set is attributed to PubChem BioAssay AID1220.
